# Tested on: Plasmodium falciparum
# EXPERIMENTAL DETAILS: GSK_TCMDC: Inhibition of Plasmodium falciparum 3D7 in whole red blood cells, using parasite LDH activity as an index of growth. Test compounds present at 2uM
# Assay type: functional
Inhibition by entry:
Give the value, in units of %, as a plain number.

Example molecules with recorded Inhibition:
> print(dat)
                                   molecule  observed.result
1  CC(C)N1CCC(N(Cc2ccc(-c3ccc(C(F)(F)F)cc3)cc2)C(=O)Cn2c(SCc3cccc(F)c3F)nc(=O)c3ccccc32)CC1.O=C(O)C(O)C(O)C(=O)O               91
2  N#Cc1ccnc(-c2ccc(CNC3CCN(CC4Cn5c(=O)ccc6ccc(F)c4c65)CC3)cc2)c1.O=C(O)C(F)(F)F (centres undefined)               88
3  CN(C)CCc1coc2ccc(C(=O)Nc3ccc(-c4ccc(O)cc4)cc3)cc12              100

Quick check: Inhibition of `O=C(O)C(F)(F)F.c1cc(OCCN2CCCC2)ccc1CNC1CCN(CC2CCCCC2)CC1` ? 100

---

# System: Plasmodium falciparum
# EXPERIMENTAL DETAILS: GSK_TCMDC: Inhibition of Plasmodium falciparum Dd2 in whole red blood cells, using parasite LDH activity as an index of growth. Test compounds present at 2uM
# Format: functional
RECORDED METRIC: Inhibition (%)
Field: numeric (%). Do not append units.

Below, 5 compounds whose answers are already recorded.
> print(dat)
                                   compound  observed.result
1  CC(C)COc1ccc(Cl)cc1Cc1ccc(-c2nc3ccc(F)c(F)c3[nH]2)o1               85
2  Cc1n[nH]c2ccc(-c3ccc4nccc(N5CCC(N)CC5)c4c3)cc12.Cl              100
3  O=C(/C=C/c1ccc(Cl)c(Cl)c1)N1CCC(CN2CCC(c3c[nH]c4cnccc34)CC2)CC1              100
4  O=C(O)C(F)(F)F.c1ccc(C2CCN(Cc3ccc(-c4c[nH]c5nc(NC6CCCC6)ncc45)cc3)CC2)cc1                9
5  COc1cccc(CN2CCCC(OC(c3ccccc3)c3ccccc3)C2)c1O.O=C(O)C(F)(F)F (stereo not drawn)               73

Inhibition of `Cl.Cn1nc(C(F)(F)F)cc1-c1ccc(C(=O)Nc2ccc3c(c2)CNCC3(C)C)s1` on Plasmodium falciparum? 36

Field: Inhibition (Plasmodium falciparum). Entry: `COc1cccc(C(=O)Nc2ccc(-c3nc4ccccc4[nH]3)cc2)c1` 19

Checklist item: Inhibition tested on Plasmodium falciparum, entry `CN(C)CCNc1nccc(N2CCc3ncnc(Nc4ccc(OCc5cccc(F)c5)c(Cl)c4)c3C2)n1` , value? 97

State its Inhibition on Plasmodium falciparum: `Fc1ccc(Nc2nnc(CNC3CCN(Cc4ccc(Cl)c(Cl)c4)CC3)[nH]2)cc1` 36

Checklist item: Inhibition tested on Plasmodium falciparum, entry `CC(C)(C)CC(C)(C)c1ccc(O)c(CNC2CCCCC2)c1.Cl` , value? 99

For the record `COc1cccc2c(N/N=C/c3ccccc3[N+](=O)[O-])cc(C)nc12` , what value of Inhibition is listed for Plasmodium falciparum? 32

---

# Tested on: Plasmodium falciparum
# EXPERIMENTAL DETAILS: GSK_TCMDC: Inhibition of Plasmodium falciparum Dd2 in whole red blood cells, using parasite LDH activity as an index of growth. Test compounds present at 2uM
# Type: functional
# binning rule on Inhibition: low = under 40%, moderate = from 40% up to 90%, high = 90% and over

Which of the defined bands does the recorded Inhibition of `O=C(C=Cc1ccc(Cl)c(Cl)c1)NCCCCCN1CCC(CCNC(=O)c2sc3ccccc3c2Cl)CC1` sit within? low

Category of `Clc1ccc2c(NN=Cc3ccco3)ccnc2c1` : high

---

The entries below come with measured Inhibition values attached.
# Test system: Plasmodium falciparum
# EXPERIMENTAL DETAILS: GSK_TCMDC: Inhibition of Plasmodium falciparum 3D7 in whole red blood cells, using parasite LDH activity as an index of growth. Test compounds present at 2uM
# Type: functional
// note: answer is a bare numeric in %

Some molecules with recorded Inhibition:
> print(dat)
                                   molecule  recorded.metric  observed.result
1  CCOC(=O)C(NC(=O)c1ccc([N+](=O)[O-])o1)C(C)C (stereo not given)       Inhibition               87
2              Clc1ccc2c(NCc3ccccc3)ccnc2c1       Inhibition              100
3  O=C(Nc1cccc(CN2CCCN(Cc3ccc(O)cc3)CC2)c1)c1cccc(F)c1.O=C(O)C(F)(F)F       Inhibition               92
4  O=C(NCC1COc2ccccc2O1)c1cnc2c(c1)nc(-c1c[nH]c(-c3ccccc3)n1)n2CCSCc1c(F)cccc1Cl (stereo not given)       Inhibition               95
5  CN1CCN(CCNc2c3ccccc3nc3c2ccc2ccccc23)CC1.Cl       Inhibition              100
6  COc1cc(F)c2nccc([C@@H](O)CN3CCC(NCc4ccc5c(n4)NC(=O)CS5)CC3)c2c1       Inhibition              100
7   N#Cc1ccc(Cn2ccc3c4c(N)nc(N)nc4ccc32)cc1       Inhibition               92
8   Cc1ccc(Nc2nc(C)cc(Nc3cccc(C#N)c3)n2)cc1       Inhibition              100

Which Inhibition reading was recorded for the molecule `CC(C)NCc1ccc(-c2ccc(NC(=O)c3ccc(C#N)cc3)cc2)cc1.O=C(O)C(F)(F)F` ? 90

May I ask what Inhibition has been recorded for `CC(C)(Oc1c(C2CCN(CCCCNC(=O)c3ccc(-c4ccc(C#N)cc4)cc3)CC2)ccc2c1CCCC2)C(N)=O` ? 100

---

# Tested on: Plasmodium falciparum
# EXPERIMENTAL DETAILS: GSK_TCMDC: Inhibition of Plasmodium falciparum Dd2 in whole red blood cells, using parasite LDH activity as an index of growth. Test compounds present at 2uM
# Type: functional
Response key: MET means Inhibition >= 80%; NOT MET means Inhibition < 80%.

> print(dat)
                                   molecule  assigned.category
1  O=C(Nc1cccc(-c2ccc(-c3nc4cc(F)ccc4[nH]3)cc2)c1)c1ccncc1                MET
2  Cl.c1cc2[nH]c(CCCCc3nc4cc(C5=N[C@H]6CCCC[C@H]6N5)ccc4[nH]3)nc2cc1C1=N[C@H]2CCCC[C@H]2N1                MET
3  Cl.O=C(Nc1ccnc2ccccc12)NC1CCN(CCc2ccccc2)CC1            NOT MET
4  OC(CN1c2ccccc2Sc2ccccc21)CN(C1CCCCC1)C1CCCCC1 (centres undefined)                MET

Would you say `CC(=O)c1cccc(S(=O)(=O)NCCCNc2nc3cc(C)cc(C)c3cc2C#N)c1` shows Inhibition at minimum 80%? NOT MET

Hi team, for `N#Cc1ccc(OCCN(Cc2ccccc2C(F)(F)F)c2ccc(C#N)c(C(F)(F)F)c2)cc1` , is the recorded Inhibition at or above 80%? MET

Tell me whether Inhibition is at least 80% here: `O=C(C=Cc1ccc(Cl)c(Cl)c1)NCCCCCN1CCC(CCNC(=O)C(c2ccccc2)c2ccccc2)CC1` NOT MET

Item CC(CCc1ccccc1)NCC(O)c1cccc([N+](=O)[O-])c1 (centres undefined) with Inhibition of 80% or above? MET

Can CCCC(C)N(Cc1ccc(C(C)(C)C)cc1)C(=O)c1ccc(OC)cc1 (centres undefined) be said to have Inhibition at or above 80%? MET

---

# maps each entry to its Inhibition
# System: Plasmodium falciparum
# EXPERIMENTAL DETAILS: GSK_TCMDC: Inhibition of Plasmodium falciparum Dd2 in whole red blood cells, using parasite LDH activity as an index of growth. Test compounds present at 2uM
# Format: functional
Could you give me the number in %? Just the number is fine.

The cases that follow already have their Inhibition on record.
COMPOUND	TARGET ENTITY	Inhibition (%)
O=C(NCC1Cc2cc(Oc3ccccc3)ccc2O1)c1ccc([N+](=O)[O-])o1 (stereo not drawn)	Plasmodium falciparum	81
CC(C)N1CCC(Oc2ccc(CN3CCN(C(c4ccccc4)c4ccc(Cl)cc4)CC3)cc2)CC1.Cl (stereo not drawn)	Plasmodium falciparum	46
CCCC1(NC[C@@H](O)[C@H](Cc2ccccc2)NC(=O)c2cc(NCC)cc(N3CCCCS3(=O)=O)c2)CCC1.Cl	Plasmodium falciparum	86
c1ccc(COc2ccccc2COc2ccccc2-c2ccc3cccnc3n2)cc1	Plasmodium falciparum	95

Inhibition lookup needed for `O=C(Nc1ccc(Cl)cc1)c1ccc(CN2CCCN(Cc3cccc(O)c3)CC2)cc1.O=C(O)C(F)(F)F` , thanks. 69

// lookup Inhibition for `CN1CCN(c2ccnc3ccc(NC(=O)Nc4ccc(-c5ccncc5)c(C#N)c4)cc23)CC1` 99

So what does the record say about Inhibition for CC(C)(C)NC(=O)C(c1ccc(F)cc1)N(C(=O)c1ccc(CN2CCOCC2)o1)c1ccc(C2CCCCC2)cc1 (stereo not drawn) ? 68

Form field: reported Inhibition of `COc1ccc(F)cc1-c1ccccc1CNC(=O)CN(C)S(=O)(=O)c1cc(C)cc(Cl)c1C` 73

Which Inhibition value belongs to `COc1cccc(C(=O)NCCc2cccc(Cl)c2)c1OCc1ccccc1` ? 0

Fill blank: measured Inhibition of the compound CC(C)(C)c1ccc(OC(=O)c2ccc(NC(=O)N[C@@H](Cc3ccc(O)cc3)C(=O)NC3CCN(Cc4ccc(O)cc4)C3)cc2)cc1.O=C(O)C(F)(F)F (stereo partly drawn) is ____. 67

What Inhibition value was documented for this compound, `CC(=O)Nc1cccc(CN(Cc2ccc(-c3ccc(CNCc4cccnc4)cn3)cc2)C(=O)Cc2cccnc2)c1.O=C(O)C(F)(F)F` ? 65

May I ask what Inhibition has been recorded for `OCc1ccc(-c2cncc(Nc3cccc(Cl)c3)c2)cc1` ? 100

Given `CN1CCN(c2ccnc3ccc(NC(=O)Nc4cccc(C#N)c4)cc23)CC1` , state its recorded Inhibition. 96

Return reported Inhibition; argument: `O=C(Nc1cccc(CN2CCCN(Cc3ccc4c(c3)OCO4)CC2)c1)c1ccc(Cl)c(Cl)c1.O=C(O)C(F)(F)F` 10

For the compound shown here, `Cc1ccc(-n2c(Cc3cccc4ccccc34)nnc2SCCC#N)c(C)c1` , give the reported Inhibition. 98

Which Inhibition is listed for `O=C(O)C(F)(F)F.c1cc(CNCc2ccc3c(c2)OCO3)cc(-c2cccc(CNc3ccc4ncccc4c3)c2)c1` ? 27

Please look up its Inhibition: `Cc1cccc2nc(-c3ccc(-c4ccc(CN5CCN(CCO)CC5)cc4)cc3)[nH]c12.O=C(O)C(F)(F)F` 97

Could you share which Inhibition value was measured for `CC1(C)CCNc2cc(NC(=O)c3ccc(-c4ncccc4C(F)(F)F)cc3)ccc21.Cl` ? 86
